Data provenance is patent US20250313563A1.

# target of assay: GSK3b (GST-full length GSK3b) (Homo sapiens (Human), UniProt P49841)
# Sequence (P49841 whole entry): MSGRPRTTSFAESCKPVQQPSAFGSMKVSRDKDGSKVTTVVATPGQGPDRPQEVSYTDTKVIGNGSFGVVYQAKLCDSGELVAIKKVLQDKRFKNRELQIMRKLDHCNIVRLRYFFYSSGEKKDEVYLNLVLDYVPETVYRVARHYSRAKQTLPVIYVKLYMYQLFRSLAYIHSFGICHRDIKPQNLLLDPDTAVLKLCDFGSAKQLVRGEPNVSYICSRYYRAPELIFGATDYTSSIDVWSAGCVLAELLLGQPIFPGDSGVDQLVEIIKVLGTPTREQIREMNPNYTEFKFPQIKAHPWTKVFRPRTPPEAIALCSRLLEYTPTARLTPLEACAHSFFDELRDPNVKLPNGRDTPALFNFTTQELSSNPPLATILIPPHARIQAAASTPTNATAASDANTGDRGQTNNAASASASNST
# assay notes: GSK3b TR-FRET kinase assay
# Assay type: biochemical
# test context: 1 nM GSK3b, 2 μM ATP, 30 minute preincubation, Table 16; read-out: GSK3-B TR-FRET BIOCHEMICAL (TR-FRET); IC50
pIC50: −log10 of the molar value.
The compounds listed here are annotated with their pIC50.

[[record]]
compound = "CCC1(c2cccc(-c3cc(C)ncc3F)c2)C2=C(CC(C)(C)CC2=O)Nc2n[nH]cc21 (stereo not shown) [Compound 927346]"
target_of_assay = "GSK3b (GST-full length GSK3b) (Homo sapiens (Human), UniProt P49841)"
metric = "pIC50"
assay_result = "≥ 7.00"

[[record]]
compound = "CCC1(c2cccc(N(C)c3ccnc(C)c3)c2)C2=C(CC(C)(C)CC2=O)Nc2n[nH]cc21 (stereo not shown) [Compound 932645]"
target_of_assay = "GSK3b (GST-full length GSK3b) (Homo sapiens (Human), UniProt P49841)"
metric = "pIC50"
assay_result = "5.30 to 6.00"


Enquiry: Give the value of pIC50 reported for the following: O=C1CC(C(F)(F)F)CC2=C1C1(CCOCC1)c1c[nH]nc1N2 (stereo not shown)
Return: 6.00 to 7.00

Enquiry: Give the value of pIC50 reported for the following: CCC1(c2cccc(-c3ccncc3C)c2)C2=C(CC(C)(C)CC2=O)Nc2n[nH]c(C)c21 (stereo not shown) [Compound 913022]
Return: 5.30 to 6.00

Enquiry: Give the value of pIC50 reported for the following: `CC[C@]1(c2cccc(C(F)(F)F)c2)C2=C(CCN(c3ccn(C)n3)C2=O)Nc2n[nH]cc21`
Return: < 5.30

Enquiry: Give the value of pIC50 reported for the following: `CC[C@]1(c2cccc(-c3ccncc3F)c2)C2=C(CC(C)(C)NC2=O)Nc2n[nH]c(Cl)c21`
Return: < 5.30

Enquiry: Give the value of pIC50 reported for the following: `Cn1ccc(CN2CC3(C2)C2=C(CC(C)(C)CC2=O)Nc2n[nH]cc23)n1`
Return: < 5.30

Enquiry: Give the value of pIC50 reported for the following: CCC1(c2cccc(S(=O)(=O)C3CCCCC3)c2)C2=C(CC(C)(C)CC2=O)Nc2n[nH]cc21 (stereo not shown)
Return: ≥ 7.00

Enquiry: Give the value of pIC50 reported for the following: CCC1(c2cccc(C)c2)C2=C(CC(C)(C)CC2=O)Nc2n[nH]c(C(F)(F)F)c21 (stereo not shown)
Return: ≥ 7.00

Enquiry: Give the value of pIC50 reported for the following: `CC[C@@]1(c2cccc(-c3cc(C)nn3C)c2)C2=C(CC(C)(C)C2=O)Nc2n[nH]cc21`
Return: < 5.30

Enquiry: Give the value of pIC50 reported for the following: CCC1(c2cccc(S(=O)(=O)C3CC3)c2)C2=C(CC(C)(C)CC2=O)Nc2n[nH]cc21 (stereo not shown)
Return: ≥ 7.00

Enquiry: Give the value of pIC50 reported for the following: CCN(C(C)=O)c1cccc(C2(CC)C3=C(CC(C)(C)CC3=O)Nc3n[nH]cc32)c1 (stereo not shown) [Compound 909215]
Return: 5.30 to 6.00

Enquiry: Give the value of pIC50 reported for the following: `CC[C@@]1(c2cccc(N(C)C(=O)c3ccn(C)n3)c2)C2=C(CC(C)(C)CC2=O)Nc2n[nH]cc21`
Return: < 5.30

Enquiry: Give the value of pIC50 reported for the following: `CC[C@]1(c2cccc(-c3cnn(-c4ccccc4)c3C(F)(F)F)c2)C2=C(CC(C)(C)NC2=O)Nc2n[nH]cc21`
Return: 6.00 to 7.00

Enquiry: Give the value of pIC50 reported for the following: CCC1(c2cccc(-c3cnn(C)c3)c2)C2=C(CC(C)(C)CC2=O)Nc2n[nH]c(C)c21 (stereo not shown) [Compound 913038]
Return: 5.30 to 6.00

Enquiry: Give the value of pIC50 reported for the following: `CC[C@]1(c2cccc(C(F)(F)F)c2)C2=C(CCN(c3cc(C)n(C)n3)C2=O)Nc2n[nH]cc21`
Return: < 5.30
